Measured values drawn from patent US20250057859A1 for this set.

Assay: in vitro
Settings: human

{"Compound": "CN[C@@H]1C[C@H]2O[C@@](C)([C@@H]1OC)n1c3ccccc3c3c4c(c5c6ccccc6n2c5c31)C(=O)NC4 [Staurosporine, staurosporine, reference compound]", "Display Unit": "%", "viability at 0.00017 µM": 98.3}

###

Assay: PC3 cell line toxicity (Cell titer Glo viability)
Type: cell-based
Conditions: human, PC3 prostate adenocarcinoma cells; PC3, 0.0015 uM, 72 h
Method: 90 nL DMSO is added to control wells. […] Luminescence was then recorded using Synergy Neo2Multi-mode Reader. Culture medium were purchased from ATCC, USA.

{"Molecule": "CN[C@@H]1C[C@H]2O[C@@](C)([C@@H]1OC)n1c3ccccc3c3c4c(c5c6ccccc6n2c5c31)C(=O)NC4 [Staurosporine, staurosporine, reference compound]", "Display Unit": "%", "viability at 72 h, 0.0015 µM": 67.1}
